Study system: Glucose transporter (Leishmania mexicana)
Assay text: ST_JUDE_LEISH: Cytotoxicity at 2uM final concentration against transgenic Leishmania Mexicana promastigotes LmGT2 that are glucose transport deficient and complemented with the L. Mexicana glucose transporter 2. Activity is measured by DNA content using SYBR green in vitro
Type: functional

Molecule | Unit abbreviation | inhibition
CC(Cc1ccc(C(C)(C)C)cc1)NCC(O)c1ccccc1 (centres undefined) | % | 0.43
CN(C)CCCOc1ccc(CN2CCC(c3c[nH]c4ccc(NCC5CCCCC5)cc34)CC2)cc1 | % | 3.06
COCC(=O)N(Cc1ccccc1-c1cccc(CNCCc2ccccc2)c1)C1CCN(Cc2ccccc2)CC1 | % | 3.9
CC(=O)N(Cc1ccccc1-c1cccc(CNCc2ccc3c(c2)OCO3)c1)C1CCN(Cc2ccccc2)CC1 | % | 3.79
CCOC(C(=O)OCC1CCCN1C(C)C)(c1ccccc1)c1ccccc1 (centres undefined) | % | 1.53
O=C(/C=C/c1ccc(Cl)c(Cl)c1)N1CCC(CN2CCC(c3c(Br)[nH]c4ccccc34)CC2)CC1 | % | 0.55
CC(=O)Nc1ccc(CN2CCC(N(C)c3cc(NC(=O)c4cccc(F)c4)ccn3)CC2)cc1 | % | 0.23
Cn1cc(CN2CCC(CCOC(c3ccccc3)c3ccccc3)CC2)cn1 | % | 5.33
Cc1ccccc1C1=CCN(CCCN2c3ccccc3Sc3ccc(Cl)cc32)CC1 | % | 1.49
